tested on: Plasmodium falciparum; test: GSK_TCMDC: Inhibition of Plasmodium falciparum Dd2 in whole red blood cells, using parasite LDH activity as an index of growth. Test compounds present at 2uM; assay type: functional
readout-type: Inhibition

test-smiles	test-system	Inhibition
CCCCCN1CCCN(Cc2cccc(NC(=O)c3cc4ccccc4s3)c2)CC1.O=C(O)C(F)(F)F	Plasmodium falciparum	30%
CCC[C@@H]([C@@H](CC(C)C)C(=O)N[C@@H](CCC/N=C(/N)NS(C)(=O)=O)C(=O)Nc1nccs1)N(O)C=O	Plasmodium falciparum	41%
CC(C)(CNCCOc1ccc(Cl)cc1)c1nc(-c2ccnc(N)n2)c(-c2ccc(Cl)c(O)c2)[nH]1.Cl	Plasmodium falciparum	19%

Please find the next compound below.
Tell me the measured Inhibition of `Cc1cc(NC2CCN(Cc3ccccc3)CC2)nc(NCCCCc2ccccc2)n1` , please.
60%

* * *

system: Plasmodium falciparum; test: GSK_TCMDC: Inhibition of Plasmodium falciparum Dd2 in whole red blood cells, using parasite LDH activity as an index of growth. Test compounds present at 2uM; type: functional
Threshold rule: Inhibition greater than or equal to 70% is criterion met; below that, criterion not met.

Example entries and their recorded answers appear below.
compound	test-system	label-value
Oc1ccc2[nH]c(-c3ccc(OC(F)(F)F)cc3)nc2c1CNC1CCCC1	Plasmodium falciparum	criterion met
O=C(Nc1ccc(-c2ccc(-c3nc4cc(C(F)(F)F)ccc4[nH]3)cc2)cc1)Nc1ccc(F)c(F)c1F	Plasmodium falciparum	criterion met
CCN1CCCC1CNC(=O)c1cc2c(-c3ccc(Cl)cc3)nn(C)c2s1 (stereo not given)	Plasmodium falciparum	criterion not met
CN1CCN(c2ccnc3ccc(NC(=O)Nc4ccc(Cl)c(Cl)c4)cc23)CC1	Plasmodium falciparum	criterion not met
Cl.O=c1cc(NCCCNCc2scc(I)c2I)[nH]c2ccccc12	Plasmodium falciparum	criterion met

Attention now turns to another entry.
Check if Inhibition >= 70% (inclusive). Item: `Br.Cc1cccc(OCCCCON2C(=N)N=C(N)NC2(C)C)c1C`
criterion met

* * *

tested on: Plasmodium falciparum; assay: GSK_TCMDC: Inhibition of Plasmodium falciparum 3D7 in whole red blood cells, using parasite LDH activity as an index of growth. Test compounds present at 2uM; format: functional
For each entry below, report its Inhibition value.
Answers are plain numbers, in %.

Worked set:
compound	Inhibition (%)
CC(C)CNCc1cccc(-c2cccc(CN(CCN(C)C)C(=O)Nc3ccccc3)c2)c1.O=C(O)C(F)(F)F	99
CCS(=O)(=O)c1ccc(-c2cnc3[nH]cc(-c4ccc(N)cc4)c3c2)cc1	92
CC(Nc1nc(Nc2ccc(F)cc2)nc(SCC(N)=O)n1)c1ccccc1 (centres undefined)	90
O=C(c1cccc(-c2noc(C(F)(F)F)n2)c1)N1CCN(c2ccncc2)CC1	90
O=C(O)C(F)(F)F.c1cc(CNCc2ccc3c(c2)OCO3)cc(-c2cccc(CNc3ccc4ncccc4c3)c2)c1	98
Cc1noc(-c2ccc3c(c2)CCN(CCC2CCC(NC(=O)/C=C/c4ccc(F)cc4)CC2)CC3)n1.Cl (centres undefined)	91
CC(C)(C)c1ccc(N2C(N)=NC(N)=NC2(C)C)cc1Cl.Cl	94
CCN(CC)CCCN1CCN(C(=O)c2cccc(-c3noc(C(F)(F)F)n3)c2)CC1	91

Name the reported Inhibition value associated with the compound `Cc1cc(-c2ccc(CNCc3ccsc3)cc2)ccc1S(=O)(=O)NCCN1CCCC1.O=C(O)C(F)(F)F`
99

* * *

Answer each item with its documented Inhibition.
tested on: Plasmodium falciparum; assay: GSK_TCMDC: Inhibition of Plasmodium falciparum 3D7 in whole red blood cells, using parasite LDH activity as an index of growth. Test compounds present at 2uM; assay type: functional
Answers are plain numbers, in %.

molecule	test-system	Inhibition, %
O=c1cc(NCCCNCc2cc(C(F)(F)F)ccc2Cl)[nH]c2ccccc12	Plasmodium falciparum	90

For every item in the list below, what is its measured Inhibition?
1. Cl.N=C(N)NN=Cc1cc([N+](=O)[O-])ccc1Sc1ccccc1CO
2. CC(=Nc1ccc(Cl)c(Cl)c1)N(C)C.Cl
3. O=C(NCCc1ccccc1F)c1ccc(N2CCN(c3ccncc3)CC2)cn1.O=C(O)C(F)(F)F
4. O=C(NCc1cccc(F)c1)Nc1ccc(-c2cccc(-c3nc4cc(F)ccc4[nH]3)c2)cc1
5. CCN1CCC(N(Cc2ccc(-c3ccc(C(F)(F)F)cc3)cc2)C(=O)Cn2c(CCc3cccc(F)c3F)cc(=O)c3ccccc32)CC1.O=C(O)C(O)C(O)C(=O)O
6. CC(=O)Nc1cccc(-c2cnc(N)c3cc(-c4ccc5c(c4)OCO5)ccc23)c1
7. COc1cccc(OC)c1C(=O)N1CCC2(CC1)C(=O)N(CC(=O)NC1CCCCC1)CN2c1ccccc1
8. CC(NC(=O)c1ccc(O)c(-c2ccc(Cl)c(Cl)c2)c1)C(=O)NCCN1CCOCC1 (centres undefined)

1. 84
2. 98
3. 93
4. 88
5. 94
6. 99
7. 92
8. 87

* * *

test system: Plasmodium falciparum; assay: GSK_TCMDC: Inhibition of Plasmodium falciparum Dd2 in whole red blood cells, using parasite LDH activity as an index of growth. Test compounds present at 2uM; assay type: functional
readout-type: Inhibition

Observe how each entry below is paired with its result.
molecule	Inhibition
COc1cc2nc(N3CCC(CNC(=O)c4ccc(C(C)=O)cc4)CC3)nc(N)c2cc1OC.O=C(O)C(F)(F)F	15%
CN(C)C(=O)n1cnc(S(=O)(=O)N(C)c2ccc(Cl)cc2)n1.Cl	80%
COc1cc(Cc2cnc(N)nc2N)c2ccsc2c1OC.Cl	4%
COc1ccc(S(=O)(=O)Nc2ccc(C(=O)NCc3ccc(C(F)(F)F)cc3)cc2)cc1N1CCN(CC2CC2)CC1.O=C(O)C(F)(F)F	1%

Can you give me Inhibition for all of these, one by one?
1. COc1ccc2nc3cc(Cl)ccc3c(N)c2c1.Cl
2. Cc1ccc(Cc2cnc(CN3CCCCC3)c(O)c2)cc1.Cl
3. Cl.N[C@@H](CCNC1CCN(c2cccc(C(F)(F)F)c2)CC1)Cc1ccc(F)c(F)c1
4. COc1ccc(CN2CCC(CNCCc3ccccc3Oc3ccccc3)CC2)cc1.O=C(O)C(F)(F)F
5. CCOC(=O)c1ccc(-c2c(C(F)(F)F)noc2-c2cc(CC)c(OC)cc2O)o1
6. Cn1ccc2c3c(N)nc(N)nc3ccc21
7. CC1(C)N=C(N)N=C(N)C1c1ccc(Cl)cc1.Cl (stereo not drawn)

1. 100%
2. 75%
3. 69%
4. 56%
5. 95%
6. 17%
7. 0%

Here are 4 molecules. What values of Inhibition were reported for them?
1. COc1cc(C(=O)NC2CCN(Cc3ccccc3)CC2)ccc1-c1nc2cc(Cl)c(C)cc2[nH]1
2. CCCCCC(=O)N1CCOC(CCN2CCC(c3ccccc3)CC2)(c2ccc(Cl)c(Cl)c2)C1 (stereo not drawn)
3. CCOc1cc2c(cc1S(=O)(=O)c1ccc(COc3ccc(C(F)(F)F)cc3)cc1)CCN(C)CC2.Cl
4. Cc1cc(NS(=O)(=O)c2cccc(C(C)N3CCC(N4CCCC4)CC3)c2)ccc1C(C)C (stereo not drawn)

1. 97%
2. 51%
3. 14%
4. 53%

* * *

Hi there, I'd appreciate the recorded Inhibition for every entry that follows.
test system: HepG2; assay: GSK_TCMDC: Percent inhibition of human HepG2 cell line. Test compounds present at 10uM.; assay type: functional
One number for each entry, in %.

Sample answers from the record:
test-smiles	test-system	value-units	Inhibition
COc1ccc(-c2nnc(Sc3ccc(C#N)c([N+](=O)[O-])c3)n2CC(C)C)cc1	HepG2	%	3
CN1CCN(Cc2cccc(-c3ccc4c(Nc5ccc(Oc6ccccc6)cc5)ccnc4c3)c2)CC1	HepG2	%	41

# batch: return Inhibition for each of the 5 compounds below
1. CN(c1ccc(C(=O)N[C@@H](CCC(=O)O)C(=O)O)cc1)S(=O)(=O)c1ccc2nc(N)[nH]c(=O)c2c1
2. COc1ccc2ncc(OC)c(CCN3CC[C@@H](NCc4ccc5c(n4)NC(=O)CS5)[C@H](O)C3)c2n1
3. CN1CCN(c2cc3c(cc2Br)CCN3C(=O)Nc2ccc(-c3cnc4ccccc4c3)cc2)CC1
4. Cc1sc(CNCCCNc2cc(=O)c3ccccc3[nH]2)c(I)c1C.Cl
5. O=C(Cn1c(CCc2cccc(F)c2F)cc(=O)c2cccnc21)N(CCN1CCCC1)Cc1ccc(-c2ccc(C(F)(F)F)cc2)cc1.O=C(O)C(O)C(O)C(=O)O

1. 16
2. 21
3. 100
4. 0
5. 48

Item `O=[N+]([O-])c1ccc(-c2ccc(C=NNc3nc(Nc4ccccc4)nc(Nc4ccccc4)n3)o2)cc1` has what recorded Inhibition?
0

* * *

system: HepG2; assay: GSK_TCMDC: Percent inhibition of human HepG2 cell line. Test compounds present at 10uM.; type: functional
Criterion: Inhibition meeting or surpassing 10%. Met: Condition met. Not met: Condition not met.

Reference set (8 entries):
compound	test-system	label-value
COc1csc2cc(Br)ccc12	HepG2	Condition not met
Br.CCSc1ccccc1CON1C(=N)N=C(N)NC1(C)C	HepG2	Condition met
CCNc1cc(C)nc(Nc2ccc(NS(=O)(=O)c3cc(OC)ccc3OC)cc2)n1	HepG2	Condition met
Cn1nc(-c2ccc(CNC3CCc4ccccc43)cc2)c2cnc(NCCCN3CCCC3)nc21 (stereo unspecified)	HepG2	Condition met
CN(CCCCN)Cc1ccc(-c2ccc(Cl)cc2)cc1	HepG2	Condition met
COc1cc(Cc2cnc(N)nc2N)c2ccsc2c1OC.Cl	HepG2	Condition not met
COc1ccc2nccc([C@@H](O)CN3CCC(NCc4nc5c(F)cccc5[nH]4)CC3)c2c1.O=C(O)C(=O)O	HepG2	Condition not met
Cl.N=c1n(CCN2CCCCC2)c2ccccc2n1CC(O)c1ccc(Cl)c(Cl)c1 (stereo unspecified)	HepG2	Condition met

For this compound, is measured Inhibition 10% or higher? CCC(C)(C)c1ccc(OCC(O)CN2CCCCC2)c(C(C)(C)CC)c1 (stereo unspecified)
Condition met

Given the entry `Cc1cccc(C(=O)Nc2ccnc(N3CCC(N(C)Cc4cccc(O)c4)CC3)c2)c1.O=C(O)C(F)(F)F` , answer whether its Inhibition meets or surpasses 10%.
Condition not met

Source: ChEMBL document CHEMBL1157539
